assay-summary: qHTS assay to identify small molecule antagonists of the estrogen receptor alpha (ER-alpha) signaling pathway using the BG1 cell line (AID 743080);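 further: BG1 cells stimulated with 17beta-estradiol alongside compound; on the % scale 0 is the no-effect control and ±100 the full control effect; nearly all actives have a fitted effect of over 25% in size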
condition: BG1Luc4E2 ERE-luciferase antagonist mode, luminescence; series mostly up to 70.3 µM
Records with an inconclusive call do not appear. The source made the active and inactive calls. The call rests on the fitted dose curve.
measured-endpoint: outcome

CCN(CC)S(=O)(=O)c1ccc(C(=O)O)cc1; inactive
CC(=O)O[C@H](CC(=O)[O-])C[N+](C)(C)C; inactive
CC(C)c1cccc(O)c1; inactive

----------
Catalogue of activity change, negative = inhibition readings, one per entry.
target-or-system: Progesterone receptor (Homo sapiens) (UniProt P06401)
Sequence (P06401 whole entry, looked up): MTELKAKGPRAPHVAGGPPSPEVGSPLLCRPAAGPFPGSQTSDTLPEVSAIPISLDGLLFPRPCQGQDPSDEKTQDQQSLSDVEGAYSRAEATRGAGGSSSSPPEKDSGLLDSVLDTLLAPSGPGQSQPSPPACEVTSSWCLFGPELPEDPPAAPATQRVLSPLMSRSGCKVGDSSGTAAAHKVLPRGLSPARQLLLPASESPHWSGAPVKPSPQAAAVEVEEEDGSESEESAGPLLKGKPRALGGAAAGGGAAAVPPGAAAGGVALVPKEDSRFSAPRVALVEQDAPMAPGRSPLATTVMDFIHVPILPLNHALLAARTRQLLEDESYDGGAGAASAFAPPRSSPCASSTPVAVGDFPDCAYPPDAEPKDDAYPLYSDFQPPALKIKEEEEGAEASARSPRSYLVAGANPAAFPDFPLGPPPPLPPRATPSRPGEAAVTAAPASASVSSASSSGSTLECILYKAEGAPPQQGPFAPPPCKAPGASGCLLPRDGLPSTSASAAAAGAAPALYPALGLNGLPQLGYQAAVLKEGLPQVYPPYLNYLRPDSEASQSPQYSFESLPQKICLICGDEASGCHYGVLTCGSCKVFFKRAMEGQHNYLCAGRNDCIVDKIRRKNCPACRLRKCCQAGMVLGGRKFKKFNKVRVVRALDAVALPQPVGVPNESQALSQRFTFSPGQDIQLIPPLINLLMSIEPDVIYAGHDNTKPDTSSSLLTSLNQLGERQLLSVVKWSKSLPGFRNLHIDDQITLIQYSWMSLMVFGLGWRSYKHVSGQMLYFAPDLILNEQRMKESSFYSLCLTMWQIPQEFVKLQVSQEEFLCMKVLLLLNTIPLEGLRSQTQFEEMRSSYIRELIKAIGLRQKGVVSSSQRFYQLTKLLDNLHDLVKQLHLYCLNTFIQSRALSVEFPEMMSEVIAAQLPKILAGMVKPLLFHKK
assay-summary: qHTS assay to identify small molecule antagonists of the progesterone receptor (PR) signaling pathway (AID 1346795); further: on the % scale 0 is the no-effect control and ±100 the full control effect
condition: PR-UAS-bla HEK293T, beta-lactamase FRET ratio, 16 h; series mostly up to 92.4 µM
Results filed as inconclusive are left out. The source made the active and inactive calls. The call rests on the fitted dose curve; in most records, active means well fitted inhibition curve with a large enough effect in the signal ratio in the repeat runs (not every such curve was filed as active); inconclusive means weak or mixed curves; inactive means flat fitted curve, though single readings scatter; the % refers to the signal ratio.

C=C(C)C(=O)OCCCCCCCCCCCCCCCCCC; -2.15% [at 18.9 µM] (inactive)
NC(=S)Nc1cccc2ccccc12; -2.03% [at 8.39 µM] (inactive)
FC(F)(F)C(F)(F)C(F)(F)C(F)(F)C(F)(F)C(F)(F)C(F)(F)C(F)(F)C(F)(F)C(F)(F)F; 0.137% [at 8.39 µM] (inactive)
Cn1ccc2cc3c(cc21)CCN3C(=O)Nc1cccnc1; -0.261% [at 18.9 µM] (inactive)

Data request: Tell me activity change, negative = inhibition reported for `NCC[C@H](O)C(=O)N[C@@H]1C[C@H](N)[C@@H](O[C@H]2O[C@H](CN)[C@@H](O)[C@H](O)[C@H]2O)[C@H](O)[C@H]1O[C@H]1O[C@H](CO)[C@@H](O)[C@H](N)[C@H]1O`
Data returned: 2.43% [at 0.348 µM] (inactive)
